Tested target: Env of all HIV-1 pseudoviruses of the cross-clade 162-pseudovirus panel (n = 162)
Procedure details: cell-based or functional assay
Metric: log10 Median IC50 against viruses neutralized with an IC50 <50 µg/ml (log10 of the value in µg/mL)
Record value = log10 of Median IC50 against viruses neutralized with an IC50 <50 µg/ml given in µg/mL.

Examples with answers:
PGT-136 (antibody, V domains shown) VH: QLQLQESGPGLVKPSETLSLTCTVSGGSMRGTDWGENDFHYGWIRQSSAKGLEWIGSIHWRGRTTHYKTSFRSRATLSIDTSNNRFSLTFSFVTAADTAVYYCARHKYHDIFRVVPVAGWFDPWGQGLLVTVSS VL: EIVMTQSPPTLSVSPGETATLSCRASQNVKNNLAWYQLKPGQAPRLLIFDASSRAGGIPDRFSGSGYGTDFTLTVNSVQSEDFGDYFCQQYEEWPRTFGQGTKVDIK = 0.89
PGT-131 (antibody, V domains shown) VH: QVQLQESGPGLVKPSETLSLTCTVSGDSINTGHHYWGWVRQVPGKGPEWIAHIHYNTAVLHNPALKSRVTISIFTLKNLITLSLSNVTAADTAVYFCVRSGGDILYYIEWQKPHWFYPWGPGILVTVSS VL: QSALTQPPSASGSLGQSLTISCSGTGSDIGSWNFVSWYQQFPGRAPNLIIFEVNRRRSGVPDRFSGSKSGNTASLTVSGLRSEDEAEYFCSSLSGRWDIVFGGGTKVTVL = -0.28
PGT-123 (antibody, V domains shown) VH: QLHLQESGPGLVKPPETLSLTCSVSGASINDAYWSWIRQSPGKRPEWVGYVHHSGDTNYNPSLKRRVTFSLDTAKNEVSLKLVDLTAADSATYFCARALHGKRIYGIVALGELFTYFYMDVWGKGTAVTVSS VL: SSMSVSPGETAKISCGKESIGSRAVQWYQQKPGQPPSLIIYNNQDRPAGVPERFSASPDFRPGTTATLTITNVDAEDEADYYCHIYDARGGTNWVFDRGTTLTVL = -1.52
PGT-128 (antibody, V domains shown) VH: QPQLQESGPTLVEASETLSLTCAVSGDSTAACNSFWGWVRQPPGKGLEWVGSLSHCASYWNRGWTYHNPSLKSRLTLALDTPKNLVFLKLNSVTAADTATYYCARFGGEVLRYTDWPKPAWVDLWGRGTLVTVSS VL: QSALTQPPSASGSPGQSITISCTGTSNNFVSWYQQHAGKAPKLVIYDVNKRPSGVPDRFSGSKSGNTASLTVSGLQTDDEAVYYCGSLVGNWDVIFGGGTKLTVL = -1.15

Please find the next binder below.
# get_value(readout='log10 Median IC50 against viruses neutralized with an IC50 <50 µg/ml', item= PGT-127 (antibody, V domains shown) VH: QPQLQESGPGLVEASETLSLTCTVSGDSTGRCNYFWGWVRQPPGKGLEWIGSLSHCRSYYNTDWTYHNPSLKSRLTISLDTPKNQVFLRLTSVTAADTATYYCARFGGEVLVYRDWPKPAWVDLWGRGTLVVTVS VL: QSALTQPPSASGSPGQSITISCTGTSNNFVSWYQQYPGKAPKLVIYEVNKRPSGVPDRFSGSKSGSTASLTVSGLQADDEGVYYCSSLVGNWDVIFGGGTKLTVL )
-1.10
